- System: TDP-43 aggregation in PC12 cells stably expressing GFP-tagged mutant TDP-43 (TDP-43^Q33IK::eGFP)
- Assay Method Text: In vitro efficacy assay: inhibition of TDP-43 inclusions, concentration-response, fluorescence microscopy
- Format: cell-based
- Condition Summary: Rattus norvegicus, PC-12, PC12 cells, 1 hour pre-treatment, 15 μM sodium arsenite for 23 hours, 10-point dose response curve
Reported IC50 values are given for each entry in this list.

• CCN(C(=O)c1cc2ccccc2[nH]1)[C@H]1COC[C@@H](NCc2ccccc2)C1 = 100 to 500 nM
• CCN(C(=O)c1cc2ccccc2[nH]1)[C@H]1CCC[C@@H](NCc2ncccn2)C1 = 100 to 500 nM
• CCN(C(=O)c1nc2c(C#N)cccc2[nH]1)[C@H]1CCC[C@@H](NCc2ccccc2)C1 = < 100 nM
• CCN(C(=O)c1nc2ccccc2[nH]1)[C@H]1CCC[C@@H](NCc2ccc(OC(F)(F)F)cc2)C1 = < 100 nM

Memo: CCN(C(=O)c1ccccc1)[C@H]1CCC[C@@H](NCc2ccccc2)C1 , reported IC50: > 2000 nM

Memo: CCN(C(=O)c1cc2cc(F)ccc2[nH]1)[C@H]1CCC[C@@H](NCc2ccccc2)C1 , reported IC50: < 100 nM

Memo: CCN(C(=O)c1cc2ccccc2[nH]1)[C@H]1CCC[C@@H](NCc2cccc(N=[N+]=[N-])c2)C1 , reported IC50: < 100 nM

Memo: CCN(C(=O)c1cc2ncccc2[nH]1)[C@H]1CCC[C@@H](NCc2nccs2)C1 , reported IC50: 500 to 2000 nM

Memo: CCN(C(=O)c1cc2ncccc2[nH]1)[C@H]1CCC[C@@H](NCc2ccccc2)C1 , reported IC50: < 100 nM

Memo: CCN(C(=O)c1nc2ccccc2[nH]1)[C@H]1CCC[C@@H](NCc2ccc3cccn3c2)C1 , reported IC50: < 100 nM

Memo: CCN(C(=O)c1nc2ccccc2[nH]1)[C@H]1CCC[C@@H](NCc2ccc3cncn3c2)C1 , reported IC50: < 100 nM

Memo: CCN(C(=O)c1cc2ccccc2[nH]1)[C@H]1CCC[C@@H](NCc2ccccc2)C1 , reported IC50: < 100 nM
